Data origin: patent US20240067657A1

Measured EC50 by item
- Test system: HCMV Strain AD169 in MRC-5 cells
- assay-name: Viral qPCR assay HCMV (V0/V1, V2/V3), EC50
- Type: cell-based
- run-conditions: Human betaherpesvirus 5, AD169, MRC5, viral qPCR assay of Example 191; read-out: HCMV Cell (EC50)
Numeric only. Scale: nM

For orientation, consider the following solved cases.
- molecule: "Cn1cc(-c2cnc(C(=O)NCc3ccc(Cl)cc3)cc2OC2CCN3C(=O)OCC3(C)C2)cn1 (stereo not shown)"
  val: 441
- molecule: "CN1CCN(c2cc(C(=O)NCc3ccc(C#N)cc3)ncc2C#N)[C@H](CF)C1"
  val: 472
- molecule: "Cn1cc(-c2cnc(C(=O)NCc3ccc(Cl)cc3)cc2O[C@H]2CCN3C(=O)CC[C@H]3C2)cn1 (racemic)"
  val: 736
- molecule: "N#Cc1ccc(CNC(=O)c2cc(O[C@H]3CCN4C(=O)OC[C@@H]4C3)c(-c3cnn(C(F)F)c3)cn2)cc1"
  val: 239
- molecule: "Cc1cnc(-c2cnc(C(=O)NCc3ccc(Cl)cc3)cc2O[C@H]2CCN3C(=O)OC[C@@H]3C2)s1"
  val: 89.9
- molecule: "CS(=O)(=O)N1CCC(Oc2cc(C(=O)NCc3ccc(Cl)cc3)ncc2Cl)CC1"
  val: 5340

Alright, here's another molecule for you.
QUERY: Which EC50 is listed for O=C(NCc1ccc(Cl)cc1)c1cc(O[C@H]2CCN3C(=O)OC[C@@H]3C2)cc(CO)n1 ?
RESULT: 1890

====

Parameter pIC50, tested on varicella zoster virus DNA polymerase (Varicella-zoster virus, UniProt P09252), listed per item.
Sequence (P09252 whole entry): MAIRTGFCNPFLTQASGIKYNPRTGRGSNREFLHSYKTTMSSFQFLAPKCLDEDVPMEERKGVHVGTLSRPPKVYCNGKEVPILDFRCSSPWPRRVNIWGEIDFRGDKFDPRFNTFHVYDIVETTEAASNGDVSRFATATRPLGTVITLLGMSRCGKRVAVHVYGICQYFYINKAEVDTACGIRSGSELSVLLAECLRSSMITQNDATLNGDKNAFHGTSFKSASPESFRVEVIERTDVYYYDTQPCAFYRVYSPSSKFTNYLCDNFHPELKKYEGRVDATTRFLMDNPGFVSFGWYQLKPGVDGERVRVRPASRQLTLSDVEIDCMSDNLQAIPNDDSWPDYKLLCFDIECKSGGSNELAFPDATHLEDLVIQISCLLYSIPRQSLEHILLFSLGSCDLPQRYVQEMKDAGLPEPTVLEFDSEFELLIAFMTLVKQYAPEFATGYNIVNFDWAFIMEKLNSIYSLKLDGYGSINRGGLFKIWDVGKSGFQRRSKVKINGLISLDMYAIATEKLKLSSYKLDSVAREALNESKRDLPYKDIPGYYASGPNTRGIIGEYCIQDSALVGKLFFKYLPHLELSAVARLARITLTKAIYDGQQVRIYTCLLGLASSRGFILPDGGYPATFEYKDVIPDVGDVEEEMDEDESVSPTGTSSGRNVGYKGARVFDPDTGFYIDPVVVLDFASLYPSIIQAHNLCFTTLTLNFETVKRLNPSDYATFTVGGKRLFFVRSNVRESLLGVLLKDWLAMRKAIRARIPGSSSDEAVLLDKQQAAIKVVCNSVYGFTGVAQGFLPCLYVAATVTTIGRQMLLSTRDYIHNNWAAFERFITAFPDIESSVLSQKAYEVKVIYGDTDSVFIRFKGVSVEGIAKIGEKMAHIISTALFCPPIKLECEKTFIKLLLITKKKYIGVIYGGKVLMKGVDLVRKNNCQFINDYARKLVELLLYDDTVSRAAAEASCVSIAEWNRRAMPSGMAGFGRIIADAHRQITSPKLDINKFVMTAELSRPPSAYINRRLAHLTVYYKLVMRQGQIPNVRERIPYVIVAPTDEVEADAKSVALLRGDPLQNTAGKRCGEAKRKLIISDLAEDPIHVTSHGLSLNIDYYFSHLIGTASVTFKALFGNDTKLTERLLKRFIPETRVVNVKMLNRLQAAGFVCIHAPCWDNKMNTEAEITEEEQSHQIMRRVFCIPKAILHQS
Please express pIC50 as -log10 of the molar concentration.

For orientation, consider the following solved cases.
- compound: "CC(=O)N1CCC(Oc2cc(C(=O)NCc3ccc(Cl)cc3)ncc2/C=C\\c2ccccn2)CC1 [Compound 77]"
  assayed-target: "varicella zoster virus DNA polymerase (Varicella-zoster virus, UniProt P09252)"
  val: 7.43
- compound: "CC(C)n1cc(-c2c[n+]([O-])c(C(=O)NCc3ccc(Cl)cc3)cc2O[C@H]2CCN3C(=O)OC[C@@H]3C2)cn1 [Compound 131]"
  assayed-target: "varicella zoster virus DNA polymerase (Varicella-zoster virus, UniProt P09252)"
  val: 7.96

QUERY: Give pIC50 (varicella zoster virus DNA polymerase (Varicella-zoster virus, UniProt P09252)) of the following compound: CCCn1cc(-c2cnc(C(=O)NCc3ccc(Cl)cc3)cc2O[C@H]2CCN3C(=O)OC[C@@H]3C2)cn1 (racemic) [Compound 13]
RESULT: 7.42

QUERY: Give pIC50 (varicella zoster virus DNA polymerase (Varicella-zoster virus, UniProt P09252)) of the following compound: O=C(NCc1ccc(Cl)cc1)c1cc(O[C@@H]2CCN3C(=O)OC[C@H]3C2)c(-c2cn[nH]c2)cn1 (racemic) [Compound 25]
RESULT: 8.35

====

- assayed-target: Human cytomegalovirus DNA polymerase (Human cytomegalovirus, UniProt P08546)
- Sequence (P08546 whole entry): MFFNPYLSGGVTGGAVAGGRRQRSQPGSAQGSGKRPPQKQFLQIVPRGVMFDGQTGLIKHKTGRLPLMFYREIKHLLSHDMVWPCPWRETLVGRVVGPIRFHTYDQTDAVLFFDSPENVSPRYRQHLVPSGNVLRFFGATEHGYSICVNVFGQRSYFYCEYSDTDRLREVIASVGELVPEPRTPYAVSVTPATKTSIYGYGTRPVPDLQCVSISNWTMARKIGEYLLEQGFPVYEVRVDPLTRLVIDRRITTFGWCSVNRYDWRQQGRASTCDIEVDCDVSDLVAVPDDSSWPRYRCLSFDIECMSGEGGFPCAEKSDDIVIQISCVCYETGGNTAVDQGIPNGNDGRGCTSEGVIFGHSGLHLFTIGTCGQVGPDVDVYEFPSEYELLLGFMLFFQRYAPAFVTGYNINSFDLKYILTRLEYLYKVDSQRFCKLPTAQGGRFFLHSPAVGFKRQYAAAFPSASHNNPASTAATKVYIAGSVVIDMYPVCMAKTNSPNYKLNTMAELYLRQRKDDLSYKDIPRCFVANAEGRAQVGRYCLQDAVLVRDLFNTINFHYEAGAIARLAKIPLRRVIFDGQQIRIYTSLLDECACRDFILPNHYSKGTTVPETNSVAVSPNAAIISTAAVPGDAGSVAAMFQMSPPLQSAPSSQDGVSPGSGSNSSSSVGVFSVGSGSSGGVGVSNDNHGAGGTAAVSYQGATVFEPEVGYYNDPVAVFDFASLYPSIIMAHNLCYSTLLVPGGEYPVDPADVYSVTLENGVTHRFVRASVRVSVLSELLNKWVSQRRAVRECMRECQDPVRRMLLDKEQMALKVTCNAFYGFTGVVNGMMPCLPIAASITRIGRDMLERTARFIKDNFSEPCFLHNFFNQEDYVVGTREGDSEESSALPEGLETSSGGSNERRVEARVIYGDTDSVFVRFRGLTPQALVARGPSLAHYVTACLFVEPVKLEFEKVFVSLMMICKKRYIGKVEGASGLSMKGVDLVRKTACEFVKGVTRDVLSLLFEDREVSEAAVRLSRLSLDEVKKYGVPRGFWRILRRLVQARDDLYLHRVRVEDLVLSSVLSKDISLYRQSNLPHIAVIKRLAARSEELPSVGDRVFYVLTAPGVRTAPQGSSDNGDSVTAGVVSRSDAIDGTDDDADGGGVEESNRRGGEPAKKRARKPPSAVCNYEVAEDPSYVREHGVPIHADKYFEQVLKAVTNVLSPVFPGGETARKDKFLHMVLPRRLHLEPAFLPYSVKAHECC
endpoint: pIC50
Please express pIC50 as -log10 of the molar concentration.

For orientation, consider the following solved cases.
- compound: "CC(=O)N1CCC(Oc2cc(C(=O)NCc3ccc(Cl)cc3)ncc2-c2cnn(CCO)c2)CC1 [Compound 62]"
  assayed-target: "Human cytomegalovirus DNA polymerase (Human cytomegalovirus, UniProt P08546)"
  pIC50: 6.65
- compound: "O=C(NCc1ccc(Cl)cc1)c1cc(O[C@H]2CCN3C(=O)NC[C@@H]3C2)c(-c2cnn(C(F)F)c2)cn1 (racemic) [Compound 163]"
  assayed-target: "Human cytomegalovirus DNA polymerase (Human cytomegalovirus, UniProt P08546)"
  pIC50: 6.69
- compound: "O=C(NCc1ccc(Cl)cc1)c1cc(O[C@H]2CCN3C(=O)OC[C@@H]3C2)c(-c2cc[nH]n2)cn1 [Compound 18]"
  assayed-target: "Human cytomegalovirus DNA polymerase (Human cytomegalovirus, UniProt P08546)"
  pIC50: 7.81
- compound: "CC(C)n1cc(-c2cnc(C(=O)NCc3ccc(Cl)cc3)cc2O[C@H]2CCN3C(=O)OC[C@@H]3C2)cn1 [Compound 21]"
  assayed-target: "Human cytomegalovirus DNA polymerase (Human cytomegalovirus, UniProt P08546)"
  pIC50: 7.81

QUERY: Which pIC50 is listed for CC(C)n1cc(-c2c[n+]([O-])c(C(=O)NCc3ccc(Cl)cc3)cc2O[C@H]2CCN3C(=O)OC[C@@H]3C2)cn1 [Compound 131] ?
RESULT: 7.93

QUERY: Which pIC50 is listed for Cn1cnc(-c2cnc(C(=O)NCc3ccc(Cl)cc3)cc2O[C@H]2CCN3C(=O)OC[C@@H]3C2)c1 [Compound 38] ?
RESULT: 7.94

QUERY: Which pIC50 is listed for CC(=O)N1CC[C@@H](Oc2cc(C(=O)NCc3ccc(Cl)cc3)ncc2-c2cnc(C)o2)C[C@H]1C [Compound 165] ?
RESULT: 8.28

QUERY: Which pIC50 is listed for CC(C)n1ccc(-c2cnc(C(=O)NCc3ccc(Cl)cc3)cc2O[C@H]2CCN3C(=O)OC[C@@H]3C2)n1 [Compound 15] ?
RESULT: 7.53

QUERY: Which pIC50 is listed for CC(=O)N1CCC(Oc2cc(C(=O)NCc3ccc(Cl)cc3)ncc2/C=C\c2ccccn2)CC1 [Compound 77] ?
RESULT: 6.99

QUERY: Which pIC50 is listed for CC(=O)N1CCC(Oc2cc(C(=O)NCc3ccc(Cl)cc3)ncc2-c2cnn(C(F)F)c2)CC1 [Compound 70] ?
RESULT: 6.93

QUERY: Which pIC50 is listed for CN(Cc1cnc(C(=O)NCc2ccc(Cl)cc2)cc1O[C@H]1CCN2C(=O)OC[C@@H]2C1)[C@H]1CCOC1 [Compound 143] ?
RESULT: 7.83

QUERY: Which pIC50 is listed for Cn1cc(-c2cnc(C(=O)NCc3ccc(Cl)cc3)cc2OC2CCC(C#N)CC2)cn1 (centres unmarked) [Compound 168] ?
RESULT: 6.99

QUERY: Which pIC50 is listed for CC(C)(O)C1CCN(c2cnc(C(=O)NCc3ccc(Cl)cc3)cc2O[C@H]2CCN3C(=O)OC[C@@H]3C2)C1 (single isomer, unassigned) [Compound 117-1] ?
RESULT: 7.64

QUERY: Which pIC50 is listed for O=C(NCc1ccc(Cl)cc1)c1cc(O[C@H]2CCN3C(=O)OC[C@@H]3C2)c(C2CC2CO)cn1 (single isomer, unassigned) [Compound 156-1] ?
RESULT: 7.39

====

- Tested on: HCMV Strain AD169 in MRC-5 cells
- assay-name: Viral qPCR assay HCMV (V0/V1, V2/V3), EC50
- Format: cell-based
- run-conditions: Human betaherpesvirus 5, AD169, MRC5, viral qPCR assay of Example 191; read-out: HCMV Cell (EC50)
Measured pEC50 by item
Please express pEC50 as -log10 of the molar concentration.

- compound: "O=C(NCc1ccc(Cl)cc1)c1cc(O[C@H]2CCN3C(=O)OC[C@@H]3C2)c(CCn2cccn2)cn1 [Compound 115]"
  assayed-target: "HCMV Strain AD169 in MRC-5 cells"
  pEC50: 5.77

QUERY: Which pEC50 is listed for O=C(NCc1ccc(Cl)cc1)c1cc(O[C@H]2CCN3C(=O)CC[C@@H]3C2)c(-c2cnn(C(F)F)c2)cn1 [Compound 166] ?
RESULT: 6.25

QUERY: Which pEC50 is listed for CC(=O)N1CCC(Oc2cc(C(=O)NCc3ccc(Cl)cc3)ncc2-c2nnc(C)o2)CC1 [Compound 153] ?
RESULT: 6.32

QUERY: Which pEC50 is listed for CC(=O)N1CCC(Oc2cc(C(=O)NCc3ccc(Cl)cc3)ncc2-c2ncc(C)s2)CC1 [Compound 63] ?
RESULT: 6.61

QUERY: Which pEC50 is listed for O=C(NCc1ccc(Cl)cc1)c1cc(O[C@H]2CCN3C(=O)OCC[C@@H]3C2)c(-c2cnn(C(F)F)c2)cn1 (single isomer, unassigned) [Compound 162-1] ?
RESULT: 7.05

====

Measured EC50 by item
- System: HSV-1 Strain F in Vero or MRC5 cells
- assay-name: Viral qPCR assay HSV-1 (V0/V1, V2/V3), EC50
- Format: cell-based
- run-conditions: Human alphaherpesvirus 1, Vero, VERO cells, 10%; read-out: HSV1 Cell (EC50) VERO 10%

For orientation, consider the following solved cases.
- molecule: "O=C(NCc1ccc(Cl)cc1)c1cc(O[C@H]2CCN3C(=O)OC[C@@H]3C2)c(/C=C/CO)cn1"
  EC50: "419 nM"
- molecule: "O=C(NCc1ccc(Cl)cc1F)c1cc(O[C@H]2CCN3C(=O)OC[C@@H]3C2)c(-c2cnn(C(F)F)c2)cn1"
  EC50: "259 nM"
- molecule: "CO[C@H]1CN(Cc2cnc(C(=O)NCc3ccc(Cl)cc3)cc2O[C@H]2CCN3C(=O)OC[C@@H]3C2)[C@@H]1C (mixture of isomers)"
  EC50: "602 nM"

QUERY: Which EC50 is listed for O=C(NCc1ccc(Cl)cc1)c1cc(O[C@H]2CCN3C(=O)OC[C@@H]3C2)c(-c2cscn2)cn1 ?
RESULT: 35.6 nM

QUERY: Which EC50 is listed for CN(C)CCn1cc(-c2cnc(C(=O)NCc3ccc(Cl)cc3)cc2O[C@H]2CCN3C(=O)OC[C@@H]3C2)cn1 (racemic) ?
RESULT: 1360 nM
